# Tested on: HOP-18 NSCLC
# assay-info: NCI tumour cell line growth inhibition, 48 h
measurement-label: TGI

compound=O=C1C2=C(CCCC2)Nc2cccc3ncn1c23 measurement_label=TGI endpoint_value="> 100 µM"
compound="O=CC(NC(=O)N(CCCl)N=O)C(O)C(O)C(O)CO (configuration not stated)" measurement_label=TGI endpoint_value="> 1250 µM"
compound=COc1ccc(NC(=O)C(=O)NO)c(OC)c1 measurement_label=TGI endpoint_value="31.1 µM"
compound=COc1cc(/C=C/c2cccnc2)cc(OC)c1OC measurement_label=TGI endpoint_value="> 100 µM"
compound="COc1cc(C(=O)C(CO)Oc2ccccc2OC)ccc1O (configuration not stated)" measurement_label=TGI endpoint_value="> 100 µM"
compound="Cn1cc2ccccc2c1-c1nc(F)nc(Oc2ccc3c(c2)CC[C@@H]2C3CC[C@@]3(C)C2CC[C@@H]3O)n1 (some centres not stated)" measurement_label=TGI endpoint_value="34.2 µM"
compound=COc1ccc(NCC#N)cc1 measurement_label=TGI endpoint_value="> 100 µM"
compound=O=C(O)C1(C(=O)O)CC1 measurement_label=TGI endpoint_value="> 100 µM"
compound=Cn1cnc([N+](=O)[O-])c1Sc1nc2ncccc2[nH]1 measurement_label=TGI endpoint_value="> 100 µM"
compound="CC12OC3(O)C4C5CC(C6C5C3C61)C42 (configuration not stated)" measurement_label=TGI endpoint_value="> 100 µM"
compound=Cc1cc([N+](=O)[O-])c(C)c2c1[nH]c1ccc(O)cc12 measurement_label=TGI endpoint_value="> 100 µM"
compound="CCC(C)NC1=C(NC(C)=O)C(=O)c2ccccc2C1=O (configuration not stated)" measurement_label=TGI endpoint_value="> 75 µM"

====

Overview of recorded log10 TGI for various compounds
# Test system: A498 renal
# assay-info: NCI tumour cell line growth inhibition, 48 h
measurement-label: log10 TGI (log10 of the value in µM)

compound=Cc1ccc(NS(=O)(=O)c2ccc(-c3cnc(C4CC4)o3)cc2)cc1C endpoint_value=-0.03
compound=C/C=C(/C(=C/C)c1ccc(O)cc1)c1ccc(O)cc1 endpoint_value=1.29
compound="O=C(C(Br)C(Br)c1ccccc1)C(Br)C(Br)c1ccccc1 (stereo not given)" endpoint_value=0.61
compound="CC1=C(C#N)C2C(=C(C)N1)C(N)=Nc1ccccc12 (stereo not given)" endpoint_value=1.99
compound=COc1ccc(/C=C2\CS(=O)(=O)C/C(=C\c3ccc(OC)cc3)C2=O)cc1 endpoint_value=0.56

====

# Tested on: NCI-H226 lung
# assay-info: NCI tumour cell line growth inhibition, 48 h
Listed below: TGI values for each entry.
measurement-label: TGI

compound=CC1(C)C[C@H]2[C@H](O)C(CO)=C3C(=O)[C@@H](O)[C@]3(C)[C@H]2C1 endpoint_value="> 100 µM"
compound="CCC(/C=C(C)/C=C/C(=O)c1c(O)c(-c2ccc(O)cc2)c[nH]c1=O)CO (stereo not given)" endpoint_value="> 100 µM"
compound=Cc1[nH]c2ncn(Nc3ccccc3)c(=N)c2c1Cc1ccccc1 endpoint_value="> 100 µM"
compound=CS(=O)(=O)Nc1ccc(Nc2cc[nH]c3ccc4nccc4c23)cc1 endpoint_value="24.5 µM"
compound=COc1ccc(-c2cnoc2-c2ccc(OC)cc2O)cc1 endpoint_value="55.6 µM"
compound=COc1ccc(/C=N/Nc2nc(N)nc(N3CCCC3)c2C#N)cc1 endpoint_value="30.6 µM"
compound="O=C(C(Br)C(Br)c1ccccc1)C(Br)C(Br)c1ccccc1 (stereo not given)" endpoint_value="3.71 µM"
compound=C=C1C(=O)O[C@H]2[C@H]1CC/C(COC(=O)NCc1ccc(Cn3c(=O)sn(CCI)c3=O)cc1)=C\CC[C@@]1(C)O[C@@H]21 endpoint_value="33.1 µM"
compound=CC1(C)[C@@H](Cn2nnc3c(N)ncnc32)CC[C@@]1(C)CO endpoint_value="> 100 µM"
compound=N#Cc1ccsc1Nc1ccccc1[N+](=O)[O-] endpoint_value="> 100 µM"

====

# System: SNB-78 CNS
# assay-info: NCI tumour cell line growth inhibition, 48 h
Quick reference: TGI of the listed items.
measurement-label: TGI

molecule=CC1(C)CC(=O)C(C(=O)C(=O)NC2=C(Cl)C(=O)c3ccccc3C2=O)C(=O)C1 target_or_system="SNB-78 CNS" measurement_label=TGI endpoint_value="> 100 µM"
molecule="C[C@]12CCc3nonc3C1CC[C@@H]1C2CC[C@]2(C)C(=O)/C(=N\\O)CC12 (stereo partly specified)" target_or_system="SNB-78 CNS" measurement_label=TGI endpoint_value="> 100 µM"
molecule="CCC(C)NC1=C(NC(C)=O)C(=O)c2ccccc2C1=O (stereo unspecified)" target_or_system="SNB-78 CNS" measurement_label=TGI endpoint_value="> 75 µM"
molecule=CN(C)c1ccc(C=NC23CC4CC(CC(C4)C2)C3)cc1 target_or_system="SNB-78 CNS" measurement_label=TGI endpoint_value="> 100 µM"
molecule="CC1OC(=O)C2CC3CCCCC3C(/C=C/C3CCCC(C)N3C)C12 (stereo unspecified)" target_or_system="SNB-78 CNS" measurement_label=TGI endpoint_value="> 52.8 µM"
molecule="CN(N=O)C(=O)N(N)CCCCC(NC(=O)OCc1ccccc1)C(=O)OCc1ccccc1 (stereo unspecified)" target_or_system="SNB-78 CNS" measurement_label=TGI endpoint_value="85.9 µM"
molecule=Cc1cc(C)nc(NS(=O)(=O)c2ccc(NC(=O)c3cccc4c(Nc5ccc(S(=O)(=O)N=C(N)N)cc5)c5ccc(Cl)cc5nc34)cc2)n1 target_or_system="SNB-78 CNS" measurement_label=TGI endpoint_value="> 100 µM"
molecule=CN(C(=O)c1cccs1)C(=S)N1CCN(c2ccccn2)CC1 target_or_system="SNB-78 CNS" measurement_label=TGI endpoint_value="> 100 µM"
molecule="COC(=O)C(Cc1nc2ccc(Cl)cc2[nH]c1=O)/C(=N/O)C(=O)Nc1cccc(Cl)c1C (stereo unspecified)" target_or_system="SNB-78 CNS" measurement_label=TGI endpoint_value="> 100 µM"
molecule="O=C(CC1(O)C(=O)Nc2ccc([N+](=O)[O-])cc21)c1ccc2ccccc2c1 (stereo unspecified)" target_or_system="SNB-78 CNS" measurement_label=TGI endpoint_value="> 100 µM"
molecule=Cc1ccc(Nc2nc3c(s2)C(=O)c2ccccc2C3=O)cc1 target_or_system="SNB-78 CNS" measurement_label=TGI endpoint_value="5.82 µM"
molecule="CC(SC(=S)Nc1cccc(F)c1)C(=O)O (stereo unspecified)" target_or_system="SNB-78 CNS" measurement_label=TGI endpoint_value="> 100 µM"
molecule=CCOC(=O)Cn1c(=O)n(C)c(=O)c2[nH]cnc21 target_or_system="SNB-78 CNS" measurement_label=TGI endpoint_value="> 100 µM"
molecule=CCOC(=O)NC(=O)c1cn(-c2ccc(CCOC(=O)NCCCCCCNC(=O)OCCc3ccc(-n4c(=O)[nH]cc(C(=O)NC(=O)OCC)c4=O)cc3)cc2)c(=O)[nH]c1=O target_or_system="SNB-78 CNS" measurement_label=TGI endpoint_value="98.8 µM"
molecule=CN=C(NC#N)N(Cc1ccccc1)Cc1ccccc1 target_or_system="SNB-78 CNS" measurement_label=TGI endpoint_value="> 100 µM"
molecule="NC(=O)c1ncn2c1NCC1OC2C(O)C1O (stereo unspecified)" target_or_system="SNB-78 CNS" measurement_label=TGI endpoint_value="> 100 µM"

====

# Tested on: UO-31 renal
# assay-info: NCI tumour cell line growth inhibition, 48 h
Each item that follows carries a reported log10 TGI.
measurement-label: log10 TGI (log10 of the value in µM)

compound=CN1CCN(Cc2ccc(NC(=O)c3cnc(F)c(C#Cc4cnc(N)c5ncccc45)c3)cc2C(F)(F)F)CC1 endpoint_value=0.06
compound=CCN(CC)CCn1c(=O)c2ccccc2n2c3c(=O)n(C)c(=O)n(C)c3nc12 endpoint_value=0.80
compound=COc1ccc(CN2CCc3c(Sc4ccccc4)nc(N)nc3C2=O)c(OC)c1 endpoint_value=1.11
compound=C[C@]12CC[C@@H]3c4ccc(O)cc4CC[C@H]3[C@@H]1CC[C@@H]2OC(=O)CCC1CCCC1 endpoint_value=1.55
compound="O=C(C(Br)C(Br)c1ccccc1)C(Br)C(Br)c1ccccc1 (stereo not given)" endpoint_value=-0.07

====

GI50 values for the compounds below.
# System: 786-0 renal
# assay-info: NCI tumour cell line growth inhibition, 48 h
measurement-label: GI50

compound=COc1ccc(-c2cc3c(OC)c(OC)c(OC)cc3oc2=O)cc1 endpoint_value="6.91 µM"
compound=COc1ccc(/C=N/Nc2nc(N)nc(N3CCCC3)c2C#N)cc1 endpoint_value="16.2 µM"
compound=O[C@H]1C=C2[C@H](C[C@@H]1O)CN1C[C@H]2c2cc3c(cc21)OCO3 endpoint_value="25.5 µM"
compound=CCN(CCCNC(=O)Cc1cc(=O)oc2cc(N(C)C)ccc12)CCNc1ccnc2cc(Cl)ccc12 endpoint_value="16 µM"
compound=c1cc(N2CCN(c3ccc(C4=NCCN4)cc3)CC2)ccc1C1=NCCN1 endpoint_value="> 68.9 µM"
compound="CCC(/C=C(C)/C=C/C(=O)c1c(O)c(-c2ccc(O)cc2)c[nH]c1=O)CO (centres undefined)" endpoint_value="8.1 µM"
compound=CC(C)(C)CC(C)(C)c1ccc(OCCSC(=N)N)cc1 endpoint_value="1.51 µM"
compound="CN(C)c1ccc(O)c2c1CC1CC3C(N(C)C)C(=O)C(C(N)=O)=C(O)C3(O)C(=O)C1=C2O (centres undefined)" endpoint_value="11.5 µM"
compound=CN1CCN(Cc2ccc(NC(=O)c3cnc(F)c(C#Cc4cnc(N)c5ncccc45)c3)cc2C(F)(F)F)CC1 endpoint_value="0.448 µM"
compound=N#Cc1c(-c2ccccc2)n([O-])c2ccccc2[n+]1=O endpoint_value="35.7 µM"
compound=Cc1ccc2c(NCCCN(C)C)c3c(C)nn(C)c3nc2c1 endpoint_value="4.99 µM"
compound=COc1ccc(-c2cnoc2-c2ccc(OC)cc2O)cc1 endpoint_value="5.31 µM"
compound=Cc1cc(I)cc(CN(C)CCN(C)C)c1O endpoint_value="40.1 µM"
compound=CCCn1c2c(c3ccccc3c1=O)C(=O)c1cc3c(cc1-2)OCO3 endpoint_value="77.2 µM"
